Assay: Cytotoxicity against human SupT1 cells assessed as decrease in cell viability after 48 hrs by CCK-8 assay
Assay type: cell-based, SUP-T1
Please provide measured CC50 at 48 h for the entries that follow.

[Q] Data request, read-out CC50 at 48 h, for `COC(=O)[C@@]1(Cc2ccc(O)c(C[C@H](O)C(C)(C)O)c2)OC(=O)C(OC)=C1c1ccc(O)cc1`
[A] > 100 µM

[Q] GET /values?readout=CC50 at 48 h&item= `COc1cc(/C=C2\OC(=O)C(c3ccc(O)cc3)=C2O)cc(O)c1O`
[A] > 100 µM

[Q] Which CC50 at 48 h is listed for `C/C(=C\CC/C(C)=C/C[C@]1(O)C(=O)c2c(O)cc(C)c3c(O)c(C)c(O)c(c23)C1=O)CC/C=C(\CO)CC[C@@H](O)C(C)(C)O` ?
[A] > 100 µM

[Q] Sample `Cc1c(O)c(O)c(O)c2c1COC2` — what was its CC50 at 48 h?
[A] 91.4 µM

[Q] Would you mind telling me what CC50 at 48 h value was observed for COC(OC)C1CCC(C(C)(C)O)OC1CC/C(C)=C/CC/C(C)=C/C[C@]1(O)C(=O)c2c(O)cc(C)c3c(O)c(C)c(O)c(c23)C1=O (some centres not stated) ?
[A] > 100 µM

[Q] Please give the measured CC50 at 48 h for this compound: `CC1=C(C)[C@H]2[C@H](Cc3ccccc3)NC(=O)[C@]23OC(=O)/C=C/[C@H](C)[C@H](O)[C@@H](C)C/C=C/[C@H]3[C@@H]1O`
[A] > 100 µM

[Q] Using the record for `C/C1=C\CC(=O)O[C@@]23C(=O)N[C@@H](Cc4ccccc4)[C@@H]2[C@H](C)[C@@]2(C)O[C@H]2[C@@H]3/C=C/C[C@H](C)C1=O` , report its CC50 at 48 h.
[A] 98.6 µM

* * *

System: Human immunodeficiency virus 1
Assay: Antiviral activity against VSV-G pseudotyped HIV1 infected in human SupT1 cells after 48 hrs by luciferase reporter gene assay
Type: functional, organism-based
Settings: Human immunodeficiency virus 1, SUP-T1, 48 h
Would you mind telling me the reported IC50 of each entry?

[Q] Given `CC1=C(C)[C@H]2[C@H](Cc3ccccc3)NC(=O)[C@]23OC(=O)C/C=C(/C)C(=O)[C@@H](C)C/C=C/[C@H]3[C@@H]1O` , state its recorded IC50.
[A] 28.9 µM

[Q] So what's the measured IC50 for this one? `O=C1O/C(=C\c2ccc(O)cc2)C(O)=C1c1ccc(O)c(O)c1`
[A] 72.4 µM

[Q] Please report the recorded IC50 for COC(OC)C1CCC(C(C)(C)O)OC1CC/C(C)=C/CC/C(C)=C/C[C@]1(O)C(=O)c2c(O)cc(C)c3c(O)c(C)c(O)c(c23)C1=O (stereo partly drawn) .
[A] 2.4 µM

[Q] Reported IC50 for `COc1cc(/C=C2\OC(=O)C(c3ccc(O)cc3)=C2O)cc(O)c1O` : what is it?
[A] 78.3 µM

[Q] Give the measured IC50 of `COC(=O)[C@@]1(Cc2ccc(O)c(C[C@@H](O)C(C)(C)O)c2)OC(=O)C(OC)=C1c1ccc(O)cc1` .
[A] 82.3 µM

[Q] Need IC50 of `COC(=O)[C@@]1(Cc2ccc(O)c(C[C@H](O)C(C)(C)O)c2)OC(=O)C(OC)=C1c1ccc(O)cc1` , thanks.
[A] 67.2 µM

[Q] Look at this molecule and give its reported IC50. `Cc1c(O)c(O)c2c(c1C=O)[C@@H]1O[C@H](O2)c2c(C)c(O)c(O)c(O)c2C1=O`
[A] 6.6 µM

[Q] Which IC50 is reported for this molecule? `CC(C)=CCC/C(=C/CC/C(C)=C/CC/C(C)=C/C[C@]1(O)C(=O)c2c(O)cc(C)c3c(O)c(C)c(O)c(c23)C1=O)CO`
[A] 4.5 µM

Sourced from ChEMBL document CHEMBL4130477
